Attribution: patent EP4725957A1

# Test system: Acinetobacter baumannii ABA19-1
# Assay type: cell-based
# Stated Conditions: ABA19-1
Numbered stars: 1 amine (or outer) side, 2 acyl side, 3 side chain; on linkers, the order of the positions; unused ones are H or OH. Bridge positions count the residues as written; N and C are the ends. Square brackets hold non-standard residues; d marks the D form. Peptide text beside a SMILES is read from it. * marks the point of attachment. X3 = O=C([C@@H](Cc1ccc(CS(=O)(=O)O)cc1)N[*:1])[*:2]; Dab(CH2SO3H) = N[C@@H](CCNCS(=O)(=O)O)C(=O)O; Heptanoyl(6-Me) = CC(C)CCCCC(=O)*; Nonanoyl = CCCCCCCCC(=O)*; X1 = CC[C@H](C)CCCCC(=O)*; dDab = NCC[C@@H](N)C(=O)O; Heptanoyl = CCCCCCC(=O)*; Octanoyl = CCCCCCCC(=O)*; Orn = NCCC[C@H](N)C(=O)O; dDap = NC[C@@H](N)C(=O)O; Dab = NCC[C@H](N)C(=O)O; Dap = NC[C@H](N)C(=O)O
Observable: MIC

molecule="CC[C@H](C)CCCCC(=O)N[C@@H](CCN)C(=O)N[C@H](C(=O)N[C@@H](CCCN)C(=O)N[C@H]1CCNC(=O)[C@H]([C@@H](C)O)NC(=O)[C@H](CCN)NC(=O)[C@H](CCN)NC(=O)[C@H]([C@@H](C)O)NC(=O)[C@@H](Cc2ccccc2)NC(=O)[C@H](CCN)NC1=O)[C@@H](C)O [Compound 26] (X1-[Dab]T[Orn][Dab][Dab][dF]T[Dab][Dab]T; lactam 4-C)" result="0.125 µg/mL"
molecule="CCCCCCCC(=O)N[C@@H](CCN)C(=O)N[C@H](C(=O)N[C@H](CO)C(=O)N[C@H]1CCNC(=O)[C@H]([C@@H](C)O)NC(=O)[C@H](CCCN)NC(=O)[C@H](CCN)NC(=O)[C@H]([C@@H](C)O)NC(=O)[C@@H](Cc2ccccc2)NC(=O)[C@H](CCN)NC1=O)[C@@H](C)O [Compound 88] (Octanoyl-[Dab]T[dS][Dab][Dab][dF]T[Dab][Orn]T; lactam 4-C)" result="0.06 µg/mL"
molecule="CC(C)CCCCC(=O)N[C@@H](CCN)C(=O)N[C@H](C(=O)N[C@H](CO)C(=O)N[C@H]1CCNC(=O)[C@H]([C@@H](C)O)NC(=O)[C@H](CCN)NC(=O)[C@H](CCN)NC(=O)[C@H]([C@@H](C)O)NC(=O)[C@@H](Cc2ccccc2)NC(=O)[C@H](CN)NC1=O)[C@@H](C)O [Compound 62] ({Heptanoyl(6-Me)}-[Dab]T[dS][Dab][Dap][dF]T[Dab][Dab]T; lactam 4-C)" result="0.25 µg/mL"
molecule="CC(C)CCCCC(=O)N[C@@H](CCN)C(=O)N[C@H](C(=O)N[C@@H](CN)C(=O)N[C@H]1CCNC(=O)[C@H]([C@@H](C)O)NC(=O)[C@H](CCN)NC(=O)[C@H](CCNCS(=O)(=O)O)NC(=O)[C@H]([C@@H](C)O)NC(=O)[C@@H](Cc2ccccc2)NC(=O)[C@H](CCN)NC1=O)[C@@H](C)O [Compound 119] ({Heptanoyl(6-Me)}-[Dab]T[Dap][Dab][Dab][dF]T[Dab(CH2SO3H)][Dab]T; lactam 4-C)" result="0.25 µg/mL"
molecule="CC(C)CCCCC(=O)N[C@@H](CCN)C(=O)N[C@H](C(=O)N[C@H](CO)C(=O)N[C@H]1CCNC(=O)[C@H]([C@@H](C)O)NC(=O)[C@H](CN)NC(=O)[C@H](CCN)NC(=O)[C@H]([C@@H](C)O)NC(=O)[C@@H](Cc2ccccc2)NC(=O)[C@H](CCN)NC1=O)[C@@H](C)O [Compound 82] ({Heptanoyl(6-Me)}-[Dab]T[dS][Dab][Dab][dF]T[Dab][Dap]T; lactam 4-C)" result="0.06 µg/mL"
molecule="CCCCCCC(=O)N[C@@H](CCN)C(=O)N[C@H](C(=O)N[C@H](CO)C(=O)N[C@H]1CCNC(=O)[C@H]([C@@H](C)O)NC(=O)[C@H](CCN)NC(=O)[C@H](CCN)NC(=O)[C@H]([C@@H](C)O)NC(=O)[C@@H](Cc2ccccc2)NC(=O)[C@H](CN)NC1=O)[C@@H](C)O [Compound 64] (Heptanoyl-[Dab]T[dS][Dab][Dap][dF]T[Dab][Dab]T; lactam 4-C)" result="0.25 µg/mL"
molecule="CCCCCCCCC(=O)N[C@@H](CCN)C(=O)N[C@H](C(=O)N[C@H](CN)C(=O)N[C@H]1CCNC(=O)[C@H]([C@@H](C)O)NC(=O)[C@H](CCN)NC(=O)[C@H](CCN)NC(=O)[C@H](CC(C)C)NC(=O)[C@@H](Cc2ccccc2)NC(=O)[C@H](CCN)NC1=O)[C@@H](C)O [Compound 35] (Nonanoyl-[Dab]T[dDap][Dab][Dab][dF]L[Dab][Dab]T; lactam 4-C)" result="0.06 µg/mL"
molecule="CC(C)CCCCC(=O)N[C@@H](CCN)C(=O)N[C@H](C(=O)N[C@@H](CN)C(=O)N[C@H]1CCNC(=O)[C@H]([C@@H](C)O)NC(=O)[C@H](CCN)NC(=O)[C@H](CCN)NC(=O)[C@H]([C@@H](C)O)NC(=O)[C@@H](Cc2ccc(CS(=O)(=O)O)cc2)NC(=O)[C@H](CCN)NC1=O)[C@@H](C)O [Compound 116] ({Heptanoyl(6-Me)}-[Dab]T[Dap][Dab][Dab][X3]T[Dab][Dab]T; lactam 4-C)" result="0.06 µg/mL"
molecule="CC[C@H](C)CCCCC(=O)N[C@@H](CCN)C(=O)N[C@H](C(=O)N[C@H](CO)C(=O)N[C@H]1CCNC(=O)[C@H]([C@@H](C)O)NC(=O)[C@H](CCN)NC(=O)[C@H](CCN)NC(=O)[C@H]([C@@H](C)O)NC(=O)[C@@H](Cc2ccccc2)NC(=O)[C@H](CCCN)NC1=O)[C@@H](C)O [Compound 66] (X1-[Dab]T[dS][Dab][Orn][dF]T[Dab][Dab]T; lactam 4-C)" result="0.25 µg/mL"
molecule="CC[C@H](C)CCCCC(=O)N[C@@H](CCN)C(=O)N[C@H](C(=O)N[C@H](CN)C(=O)N[C@H]1CCNC(=O)[C@H]([C@@H](C)O)NC(=O)[C@H](CCN)NC(=O)[C@H](CCN)NC(=O)[C@H]([C@@H](C)O)NC(=O)[C@@H](Cc2ccccc2)NC(=O)[C@H](CCN)NC1=O)[C@@H](C)O [Compound 1] (X1-[Dab]T[dDap][Dab][Dab][dF]T[Dab][Dab]T; lactam 4-C)" result="≤0.03 µg/mL"
molecule="CCCCCCCCC(=O)N[C@@H](CN)C(=O)N[C@H](C(=O)N[C@H](CCN)C(=O)N[C@H]1CCNC(=O)[C@H]([C@@H](C)O)NC(=O)[C@H](CCN)NC(=O)[C@H](CCN)NC(=O)[C@H](CC(C)C)NC(=O)[C@@H](CC(C)C)NC(=O)[C@H](CCN)NC1=O)[C@@H](C)O [Compound 100] (Nonanoyl-[Dap]T[dDab][Dab][Dab][dL]L[Dab][Dab]T; lactam 4-C)" result="0.06 µg/mL"
